- Tested on: U2OS
- METHOD SUMMARY: Multiplex assay against U2OS
- Assay type: toxicity, cell-based
- TEST PARAMETERS: human, 24 h, 1 µM, compound concentration 1 uM, replicate 1
Binary call on Population Apoptotic (%): TRUE from 60% upward, FALSE beneath that.

{"columns": ["COMPOUND", "LABEL"],
 "data": [
  ["Cc1ccc2c(c1)c1c(n2CCc2ccc(C)nc2)CCN(C)C1 [LATREPIRDINE]", "FALSE"],
  ["C=CC(=O)Nc1cccc(Oc2nc(Nc3ccc(N4CCN(C)CC4)cc3OC)ncc2Cl)c1", "TRUE"],
  ["CNC(=O)Nc1ccc(-c2nc(N3CC4CCC(C3)O4)c3cnn(C4CCC5(CC4)OCCO5)c3n2)cc1", "FALSE"],
  ["CC1=C(C(=O)Nc2cc3cn[nH]c3cc2F)C(c2ccc(C(F)(F)F)cc2)CC(=O)N1 (stereo unspecified)", "FALSE"],
  ["C=CC(=O)Nc1cccc(Sc2nc(Nc3ccc(N4CCN(C)CC4)cc3)ncc2Cl)c1", "TRUE"],
  ["CCc1nn(CCCN2CCN(c3cccc(Cl)c3)CC2)c(=O)n1CCOc1ccccc1.Cl [NEFAZODONE HYDROCHLORIDE]", "FALSE"]
]}

---

- Tested on: U2OS
- METHOD SUMMARY: Multiplex assay against U2OS
- Assay type: toxicity, cell-based
- TEST PARAMETERS: human, 24 h, 1 µM, compound concentration 1 uM, replicate 1

{"columns": ["COMPOUND", "ASSAYED SYSTEM", "Population Fragmented Nuclei (%)"],
 "data": [
  ["CC(C)OC(=O)N1CCC(Oc2ncnc3c2cnn3-c2ccc(S(C)(=O)=O)cc2F)CC1", "U2OS", "10%"],
  ["CCc1nn(CCCN2CCN(c3cccc(Cl)c3)CC2)c(=O)n1CCOc1ccccc1.Cl [NEFAZODONE HYDROCHLORIDE]", "U2OS", "10%"],
  ["CC(C)c1noc(N2CCC(COc3ccc(-c4ccc(S(C)(=O)=O)cc4)nc3)CC2)n1", "U2OS", "17%"]
]}

---

- Test system: HEK-293T
- METHOD SUMMARY: Multiplex assay against HEK293T
- Type: toxicity, cell-based
- TEST PARAMETERS: human, 24 h, 1 µM, compound concentration 1 uM, replicate 2
Binary call on Population Mitochondria Different-Phenotype (%): 1.0 from 30% upward, 0.0 beneath that.

{"columns": ["COMPOUND", "ASSAYED SYSTEM", "LABEL"],
 "data": [
  ["COc1cc(Nc2nccc(-c3cnn4nc(OC)ccc34)n2)cc(C(F)(F)F)c1", "HEK-293T", 0.0],
  ["CC(C)(C)NC[C@H](O)COc1nsnc1N1CCOCC1", "HEK-293T", 0.0],
  ["CCc1ccc(OCc2ccccc2C(=O)Nc2ccc3nc(C)cc(N)c3c2)cc1.Cl", "HEK-293T", 1.0],
  ["CNC(=O)Nc1ccc(-c2nc(N3CC4CCC(C3)O4)c3cnn(C4CCC5(CC4)OCCO5)c3n2)cc1", "HEK-293T", 1.0],
  ["Cc1nc(N2CC[C@H](O)C2)ncc1-c1cc(C(F)(F)F)cc2[nH]ncc12", "HEK-293T", 0.0],
  ["CC(C)OC(=O)N1CCC(Oc2ncnc3c2cnn3-c2ccc(S(C)(=O)=O)cc2F)CC1", "HEK-293T", 0.0],
  ["CCC1=C[C@@H]2C[N@](C1)Cc1c([nH]c3ccccc13)[C@@](C(=O)OC)(c1cc3c(cc1OC)N(C)[C@H]1[C@@](O)(C(=O)OC)[C@H](OC(C)=O)[C@]4(CC)C=CCN5CC[C@]31[C@@H]54)C2.O=C(O)C(O)C(O)C(=O)O.O=C(O)C(O)C(O)C(=O)O [VINORELBINE TARTRATE]", "HEK-293T", 0.0],
  ["CCOC(=O)Nc1cc(-c2ccc(C)c(NS(C)(=O)=O)c2)nn2c(C)nnc12", "HEK-293T", 0.0]
]}

---

- Tested on: Fibroblast
- METHOD SUMMARY: Multiplex assay against human fibroblast
- Assay type: toxicity, cell-based
- TEST PARAMETERS: 12 h, 1 µM, compound concentration 1 uM, replicate 1

{"columns": ["MOLECULE", "Population Healthy Nuclei (%)"],
 "data": [
  ["CC(C)CC(=O)Nc1[nH]nc2c1CN(C(=O)C1CCN(C)CC1)C2(C)C", "60%"],
  ["Cl.O=C(O)c1cc(-c2ccc(C3CCNCC3)cc2)c2ccc(-c3ccc(C(F)(F)F)cc3)cc2c1", "31%"],
  ["CCc1nn(CCCN2CCN(c3cccc(Cl)c3)CC2)c(=O)n1CCOc1ccccc1.Cl [NEFAZODONE HYDROCHLORIDE]", "47%"],
  ["COc1cc2ncn(-c3cc(OCc4ccccc4C(F)(F)F)c(C(N)=O)s3)c2cc1OC [GW843682X]", "40%"],
  ["CN1CCN(Cc2ccc(Nc3ncc(Cl)c(Nc4ccccc4S(=O)(=O)N(C)C)n3)cc2)CC1", "50%"],
  ["CCc1ccc(OCc2ccccc2C(=O)Nc2ccc3nc(C)cc(N)c3c2)cc1.Cl", "33%"],
  ["O=c1cc(N2CCOCC2)oc2c(-c3cccc4c3sc3ccccc34)cccc12", "44%"],
  ["C=CC(=O)Nc1cccc(Oc2nc(Nc3ccc(N4CCN(C)CC4)cc3OC)ncc2Cl)c1", "65%"],
  ["CC(C)Oc1ccccc1C(=O)Nc1ccccc1C(=O)Nc1cccc(S(=O)(=O)C(F)(F)F)c1", "49%"],
  ["COc1ccc(-c2ccc3ncc4c(c3c2)n(-c2ccc(N3CCNCC3)c(C(F)(F)F)c2)c(=O)n4C)cn1.O=C(O)/C=C\\C(=O)O", "14%"],
  ["C[C@]12CC[C@@H]3c4ccc(O)cc4CC[C@H]3[C@@H]1CC[C@@H]2O", "50%"],
  ["Cc1ccc(C)c(Oc2ccncc2C(=O)N2CCN(C3CC3)c3ccccc32)c1", "58%"],
  ["CC(C)NC(=O)N1CC[C@H](NC2=Nc3cc(F)ccc3N(CC(F)F)c3ccc(Cl)cc32)C1", "30%"],
  ["CCOC(=O)Nc1cc(-c2ccc(C)c(NS(C)(=O)=O)c2)nn2c(C)nnc12", "44%"],
  ["COc1ccccc1CN[C@H]1C2CCN(CC2)[C@H]1C(c1ccccc1)c1ccccc1", "43%"],
  ["CC(C)(C)NC[C@H](O)COc1nsnc1N1CCOCC1", "51%"],
  ["CC1=C(C(=O)Nc2cc3cn[nH]c3cc2F)C(c2ccc(C(F)(F)F)cc2)CC(=O)N1 (configuration not stated)", "41%"]
]}

---

- Tested on: Fibroblast
- METHOD SUMMARY: Multiplex assay against human fibroblast
- Type: toxicity, cell-based
- TEST PARAMETERS: 24 h, 1 µM, compound concentration 1 uM, replicate 1
MEASUREMENT LABEL: Population Membrane Permeable-Phenotype (%)

{"columns": ["MOLECULE SMILES", "QUANTITATIVE RESULT"],
 "data": [
  ["Cc1c[nH]c2nccc(Oc3c(F)cc(Nc4cc(Cl)nc(N)n4)cc3F)c12", 26],
  ["C[C@]1(O)C[C@@H](c2nc(-c3ccc4ccc(-c5ccccc5)nc4c3)c3c(N)nccn32)C1", 9],
  ["Cc1nc(N2CC[C@H](O)C2)ncc1-c1cc(C(F)(F)F)cc2[nH]ncc12", 9],
  ["CCCSc1nc(N[C@@H]2C[C@H]2c2ccc(F)c(F)c2)c2nnn([C@@H]3C[C@H](OCCO)[C@@H](O)[C@H]3O)c2n1", 26],
  ["CC(C)(C)NC[C@H](O)COc1nsnc1N1CCOCC1", 26],
  ["O=c1[nH]c2ccccc2n1C1CCN(Cc2ccc(-c3[nH]c4cc5ncnc5cc4nc3-c3ccccc3)cc2)CC1", 8]
]}

---

- Tested on: HEK-293T
- METHOD SUMMARY: Multiplex assay against HEK293T
- Type: toxicity, cell-based
- TEST PARAMETERS: human, 24 h, 10 µM, compound concentration 10 uM, replicate 1
MEASUREMENT LABEL: Population Healthy Nuclei (%)

{"columns": ["MOLECULE", "RESULT"],
 "data": [
  ["O=C(c1cc2c(cc1F)OC(c1ccc(F)cc1)(c1ccc(Cl)cc1Cl)O2)N1CCOCC1 (stereo not drawn)", "19%"],
  ["CC(C)CC(=O)Nc1[nH]nc2c1CN(C(=O)C1CCN(C)CC1)C2(C)C", "70%"],
  ["CC(C)NC(=O)N1CC[C@H](NC2=Nc3cc(F)ccc3N(CC(F)F)c3ccc(Cl)cc32)C1", "32%"],
  ["O=c1[nH]c2ccccc2n1C1CCN(Cc2ccc(-c3[nH]c4cc5ncnc5cc4nc3-c3ccccc3)cc2)CC1", "56%"],
  ["CNC(=O)Nc1ccc2c(c1)[C@@]1(CC2)OC(=O)N(CC(=O)N(Cc2ccc(F)cc2)[C@@H](C)C(F)(F)F)C1=O", "75%"],
  ["CCc1ccc(OCc2ccccc2C(=O)Nc2ccc3nc(C)cc(N)c3c2)cc1.Cl", "0%"],
  ["CCc1nn(CCCN2CCN(c3cccc(Cl)c3)CC2)c(=O)n1CCOc1ccccc1.Cl [NEFAZODONE HYDROCHLORIDE]", "21%"],
  ["COc1cc(Nc2nccc(-c3cnn4nc(OC)ccc34)n2)cc(C(F)(F)F)c1", "20%"]
]}
